system: MS2 coat protein; test: apparent KD of MS2 coat protein; designed switch direction (-1 OFF switch, 1 ON switch): -1; higher = weaker reporter binding; conditions: input ligand: none
Kindly supply the reported apparent KD of MS2 coat protein values for the records listed here.
Report the figure in nM without appending any unit label.

[Q] Bench note: what apparent KD of MS2 coat protein did CUAGUAUAUCAGGAUAUGAUUUUAUAUAUUGGAUCAGAAGGGAUAACAUGAGGAUCACCCAUGUUAAGGAGUGA [JR_Ex6_Sub040] (Eterna round: R97, puzzle: Exclusion 6) show?
[A] 45

[Q] Which value of apparent KD of MS2 coat protein has been reported for UUGCCUAAUGUUAGGAUAUGCGACGGGUGACCGUUGCAGAAGGAACAUGAGGAUCACCCAUGUUUAAUAAAAUC [JL-BMX4-4.43 ViennaUCT mod] (Eterna round: R97, puzzle: Brourd's mod of Exclusion 4) in the records?
[A] 14.9

[Q] I have this sequence here, GAGUUAGCGUGAGGAAUAUACAUGAGGAUCACCCAUGUUAGCUAAUAUAUUGCUCGUCUUAUAACAACAAUUAACUC [Alarm 10 - Jieux - Sensor, turn-off variant 1] (Eterna round: R97, puzzle: Sensor, turn-off variant 1) , and I need its recorded apparent KD of MS2 coat protein.
[A] 13.2

[Q] Need apparent KD of MS2 coat protein of CGCACACAUGAGGAUCACCCAUGUGAGGAUAUCAUGCUUCGUAGUAAACUACGAAGUGUGAGAAGGCACAUGCA [Omei Ex1 D6] (Eterna round: R97, puzzle: Exclusion 1) , thanks.
[A] 44.4
